Can you tell me Activity for the items I'm about to list?
Biological target: von Hippel-Lindau disease tumor suppressor/Androgen receptor (Homo sapiens, UniProt P10275+P40337)
Sequence (P10275 whole entry, looked up): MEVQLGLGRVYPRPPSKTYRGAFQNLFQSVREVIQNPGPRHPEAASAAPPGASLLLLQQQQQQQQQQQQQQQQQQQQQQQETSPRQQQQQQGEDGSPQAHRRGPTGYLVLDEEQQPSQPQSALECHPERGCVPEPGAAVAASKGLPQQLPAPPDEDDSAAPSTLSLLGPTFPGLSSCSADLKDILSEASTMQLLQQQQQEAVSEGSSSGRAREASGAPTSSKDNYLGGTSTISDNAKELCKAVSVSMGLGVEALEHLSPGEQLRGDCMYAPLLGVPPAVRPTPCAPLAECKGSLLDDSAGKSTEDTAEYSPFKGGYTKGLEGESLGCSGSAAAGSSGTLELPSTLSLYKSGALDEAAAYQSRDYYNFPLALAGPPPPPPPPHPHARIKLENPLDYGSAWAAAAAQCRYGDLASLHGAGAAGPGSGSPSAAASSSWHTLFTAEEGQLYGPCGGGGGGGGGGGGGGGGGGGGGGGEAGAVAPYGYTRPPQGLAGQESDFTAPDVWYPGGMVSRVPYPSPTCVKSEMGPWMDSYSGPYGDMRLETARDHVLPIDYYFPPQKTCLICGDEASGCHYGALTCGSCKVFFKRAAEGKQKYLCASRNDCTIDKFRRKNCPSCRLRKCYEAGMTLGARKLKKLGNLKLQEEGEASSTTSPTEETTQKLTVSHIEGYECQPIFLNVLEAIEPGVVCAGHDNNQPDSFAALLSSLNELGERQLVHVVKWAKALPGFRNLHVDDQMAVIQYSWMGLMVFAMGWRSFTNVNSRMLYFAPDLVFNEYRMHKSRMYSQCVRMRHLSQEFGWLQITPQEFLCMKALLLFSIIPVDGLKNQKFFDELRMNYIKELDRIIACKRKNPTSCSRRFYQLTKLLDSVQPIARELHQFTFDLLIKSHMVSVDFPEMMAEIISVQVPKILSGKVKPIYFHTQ
Sequence (P40337 whole entry, looked up): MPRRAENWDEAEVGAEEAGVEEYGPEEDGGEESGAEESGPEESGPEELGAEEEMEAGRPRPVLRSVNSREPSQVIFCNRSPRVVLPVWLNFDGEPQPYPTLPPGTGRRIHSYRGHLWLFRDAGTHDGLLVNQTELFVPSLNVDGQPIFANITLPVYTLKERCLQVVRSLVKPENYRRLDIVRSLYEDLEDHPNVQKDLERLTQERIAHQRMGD
Assay: Protac activity against VHL/AR in AR-positive human LNCAP cells assessed as induction of AR degradation at 1 uM incubated for 6 hrs by Western blot analysis relative to control
Format: cell-based

Study these solved cases before continuing.
[
  {
    "smiles str": "Cc1cc([C@H](C(=O)N2C[C@H](O)C[C@H]2C(=O)N[C@@H](CC(=O)N2CCC(c3ccc(C(=O)N[C@H]4C(C)(C)[C@H](Oc5ccc(C#N)c(Cl)c5)C4(C)C)cc3)CC2)c2ccccc2)C(C)C)on1",
    "Activity": "> 99%"
  },
  {
    "smiles str": "Cc1cc([C@H](C(=O)N2C[C@H](O)C[C@H]2C(=O)N[C@@H](CC(=O)N2CC(N3CCC(C#Cc4ccc(C(=O)N[C@H]5C(C)(C)[C@H](Oc6ccc(C#N)c(Cl)c6)C5(C)C)cc4)CC3)C2)c2ccccc2)C(C)C)on1",
    "Activity": "68%"
  },
  {
    "smiles str": "C#Cc1ccc([C@H](CC(=O)N2CCC(C#Cc3ccc(C(=O)N[C@H]4C(C)(C)[C@H](Oc5ccc(C#N)c(Cl)c5)C4(C)C)cc3)CC2)NC(=O)[C@@H]2C[C@@H](O)CN2C(=O)[C@@H](c2cc(C)no2)C(C)C)cc1",
    "Activity": "> 99%"
  }
]

Please supply Activity for each of the following items, keeping them in order.
1. Cc1cc([C@H](C(=O)N2C[C@H](O)C[C@H]2C(=O)N[C@@H](CC(=O)N2CCC(N3CCC(C#Cc4ccc(C(=O)N[C@H]5C(C)(C)[C@H](Oc6ccc(C#N)c(Cl)c6)C5(C)C)cc4)CC3)CC2)c2ccc(Br)cc2)C(C)C)on1
2. CC(=O)N[C@H](C(=O)N1C[C@H](O)C[C@H]1C(=O)N[C@@H](CC(=O)N1CCC(C#Cc2ccc(C(=O)N[C@H]3C(C)(C)[C@H](Oc4ccc(C#N)c(Cl)c4)C3(C)C)cc2)CC1)c1ccccc1)C(C)C

1: > 95%; 2: < 5%

Hello, the source for this data is ChEMBL document CHEMBL4321866, in case you need it.
